Consider the following sequences; for each one, report its self-splicing fitness (ln).
Assay: self-splicing fitness, log relative to wild type (ln ratio); higher = more splicing; Tetrahymena group I intron in knt gene, E. coli kanamycin selection, DiMSum; sequences stand for … in CUCUCU…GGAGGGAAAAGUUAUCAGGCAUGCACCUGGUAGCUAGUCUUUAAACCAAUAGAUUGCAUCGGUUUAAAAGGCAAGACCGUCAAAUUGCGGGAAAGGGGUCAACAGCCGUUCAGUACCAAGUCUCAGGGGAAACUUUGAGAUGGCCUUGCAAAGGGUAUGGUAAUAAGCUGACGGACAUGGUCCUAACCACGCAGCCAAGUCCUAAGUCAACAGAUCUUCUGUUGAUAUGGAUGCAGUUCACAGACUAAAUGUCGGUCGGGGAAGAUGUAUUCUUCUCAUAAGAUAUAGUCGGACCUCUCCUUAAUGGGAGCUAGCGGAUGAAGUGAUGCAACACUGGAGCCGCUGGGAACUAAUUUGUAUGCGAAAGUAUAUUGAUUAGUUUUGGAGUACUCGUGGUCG;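 note: selection with 25 µg/mL kanamycin versus none on LB agar overnight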
Conditions: 37 °C

Q: Consider the sequence AUACAGCAAUAUUACGCAGC . State its measured self-splicing fitness (ln).
Result: -1.87

Q: Consider the sequence UCCCAGCAAUAUUACGGCCU . State its measured self-splicing fitness (ln).
Result: -0.901

Q: Consider the sequence UCGCAGCAAUAUUACGAAUU . State its measured self-splicing fitness (ln).
Result: -2.75

Q: Consider the sequence AAGAAGCAAUAUUACGCAUU . State its measured self-splicing fitness (ln).
Result: -1.52

Q: Consider the sequence AAGUAGCAAUAUUACGCAGG . State its measured self-splicing fitness (ln).
Result: -1.87
